Assay: Toxicokinetic, plasma concentration of compound I-6-II after empty liposome preparation
Format: in vivo, cynomolgus monkeys
Details: female, cynomolgus monkey, plasma, im, 1200 ug, empty liposome high-dosage group (1200 μg compound I-6-II/animal), intramuscular, D 29, female, Mean
readout.label: AUC(0-t) (ng·h/mL)
Give bare numbers, in ng·h/mL.

## Task Entry "CCCCCCCCCOC(=O)CCCCCCCN(CCCCCCCC(=O)OC(CCCCCCCC)CCCCCCCC)[C@@H]1CCC[C@H](O)C1" : reported AUC(0-t) = ?
## Result 3090

* * *

Experiment: Stability of lipid nanoparticles at 25° C., DLS particle size and PDI
Assay type: physicochemical
Details: preparation day (week 0)
Description: The amino lipid compounds of the present disclosure were mixed with DOPE, cholesterol, and PEG2000-DMG in a molar ratio of 45:10:42.5:2.5 and dissolved in absolute ethanol. […] Characterization of lipid nanoparticles: The particle size and PDI of the prepared lipid nanoparticles were measured by Nano-ZSZEN 3600 (Malvern). […]
readout.label: particle size

| molecule | particle size |
| --- | --- |
| CCCCCCCCCOC(=O)CCCCCCCN(CCCCCCCC(=O)OC(CCCCCCCC)CCCCCCCC)C1CCCC(O)C1 (centres unmarked) [Compound 6] | about 100 nm |
| CCCCCCCCCCCOC(=O)CCCCCN(CCCCCCCC(=O)OC(CCCCCCCC)CCCCCCCC)C1CCCC(O)C1 (centres unmarked) [Compound 7] | about 100 nm |
| CCCCCCCCCCCOC(=O)CCCCCN(CCCCCCCC(=O)OC(CCCCCCCC)CCCCCCCC)C1CCC(O)C1 (centres unmarked) [Compound 5] | about 100 nm |
| CCCCCCCCCOC(=O)CCCCCCCN(CCO)CCCCCCCC(=O)OC(CCCCCCCC)CCCCCCCC [SM102, reference compound] | about 100 nm |

Pending molecule:
## Task Entry CCCCCCCCCOC(=O)CCCCCCCN(CCCCCCOC(=O)C(CCCCCC)CCCCCCCC)C1CCCC(O)C1 (centres unmarked) [Compound 9] : reported particle size = ?
## Result about 100 nm

Sourced from patent US20260015311A1
